Quick reference for pA2 among some compounds
# TARGET OF ASSAY: Adrenergic receptor alpha-2 (Rattus norvegicus, UniProt P22086+P19328+P22909)
# Sequence (P22086 whole entry): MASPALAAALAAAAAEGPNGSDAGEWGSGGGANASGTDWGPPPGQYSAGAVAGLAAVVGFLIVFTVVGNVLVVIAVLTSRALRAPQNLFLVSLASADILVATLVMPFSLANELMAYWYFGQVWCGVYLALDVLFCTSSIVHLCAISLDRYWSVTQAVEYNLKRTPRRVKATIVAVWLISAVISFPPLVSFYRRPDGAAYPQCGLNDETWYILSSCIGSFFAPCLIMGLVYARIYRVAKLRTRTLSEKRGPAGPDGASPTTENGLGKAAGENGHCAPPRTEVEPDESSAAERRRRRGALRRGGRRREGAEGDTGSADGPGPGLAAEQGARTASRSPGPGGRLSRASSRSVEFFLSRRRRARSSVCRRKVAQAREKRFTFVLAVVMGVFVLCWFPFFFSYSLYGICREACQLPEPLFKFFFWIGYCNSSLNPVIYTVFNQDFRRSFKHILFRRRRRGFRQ
# Sequence (P19328 whole entry): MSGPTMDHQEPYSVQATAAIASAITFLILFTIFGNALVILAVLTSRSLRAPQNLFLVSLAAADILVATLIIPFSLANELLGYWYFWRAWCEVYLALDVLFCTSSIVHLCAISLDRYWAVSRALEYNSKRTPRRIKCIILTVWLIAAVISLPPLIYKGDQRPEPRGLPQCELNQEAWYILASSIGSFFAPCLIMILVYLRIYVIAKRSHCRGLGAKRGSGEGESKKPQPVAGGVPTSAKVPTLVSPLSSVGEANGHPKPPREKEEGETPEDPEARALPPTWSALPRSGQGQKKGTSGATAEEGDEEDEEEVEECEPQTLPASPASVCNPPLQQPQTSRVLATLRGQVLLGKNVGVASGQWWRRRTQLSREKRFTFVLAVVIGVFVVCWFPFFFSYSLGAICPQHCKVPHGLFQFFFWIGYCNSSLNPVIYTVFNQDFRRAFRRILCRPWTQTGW
# Sequence (P22909 whole entry): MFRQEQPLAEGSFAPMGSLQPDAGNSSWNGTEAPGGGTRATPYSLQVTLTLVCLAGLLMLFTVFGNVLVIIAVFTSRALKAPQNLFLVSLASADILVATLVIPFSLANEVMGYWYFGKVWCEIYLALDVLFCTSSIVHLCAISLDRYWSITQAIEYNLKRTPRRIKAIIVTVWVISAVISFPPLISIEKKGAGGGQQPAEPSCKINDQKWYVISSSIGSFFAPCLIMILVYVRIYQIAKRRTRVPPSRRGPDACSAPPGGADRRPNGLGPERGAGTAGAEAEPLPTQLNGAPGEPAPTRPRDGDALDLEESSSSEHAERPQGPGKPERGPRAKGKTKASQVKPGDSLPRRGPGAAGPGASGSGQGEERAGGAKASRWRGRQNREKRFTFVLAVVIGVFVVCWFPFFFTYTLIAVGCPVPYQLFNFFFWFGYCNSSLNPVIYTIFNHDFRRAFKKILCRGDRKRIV
# ASSAY INFO: The compound was evaluated for the alpha-2 adrenergic receptor antagonistic activity in rat vas deferens vs clonidin
# Format: functional, tissue-based
RECORDED ENDPOINT: pA2

> print(dat)
                                   compound  recorded.endpoint  op  value.measured
1  CN1c2c(Cl)cccc2CC1C1=NCCN1 (centres undefined)                pA2   =             8.8
2       C[C@@H]1c2ccccc2N(C)[C@@H]1C1=NCCN1                pA2   <               6
3             CN1c2ccccc2C[C@@]1(C)C1=NCCN1                pA2   =            7.55
4          C=CC[C@@]1(C2=NCCN2)Cc2ccccc2N1C                pA2   =            6.96
